# System: 192522-019-R-J2-PDC complex tumor spheroid viability;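 further: spheroids exposed to drugs for seven days before reading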
# experimental.details: Anticancer human tumor 192522-019-R-J2-PDC patient-derived colon adenocarcinoma cell line growth inhibition [POLQ]
# experimental.conditions: curve of first compound; second compound 1 µM
pIC50: −log10 of the molar value.
endpoint: pIC50

Check out these entries, answers already filled in.
COc1ccc([C@@H](O)c2cc(-c3ncnc4cc(N5CCOCC5)ccc34)c(F)cc2Cl)nn1 + Cc1cccc(N(C)C(=O)C2C(O)CCN2c2nc(C)cc(C(F)(F)F)c2C#N)c1 : < 5.00
O=C(Nc1ccc(O)c(NS(=O)(=O)c2ccc(F)cc2)c1)c1ccc(-c2ccccc2)cc1 + Nc1ccc(C#CCN(C(=O)Cc2ncc(C(F)(F)F)cc2C(F)(F)F)c2ccc(F)cc2)nn1 : < 5.00

Problem: Which pIC50 is reported for this compound? C=CCn1c(=O)c2cnc(Nc3ccc(N4CCN(C)CC4)cc3)nc2n1-c1cccc(C(C)(C)O)n1 + COC1C(OC(N)=O)C(O)C(Oc2ccc3c(O)c(NC(=O)c4ccc(O)c(CC=C(C)C)c4)c(=O)oc3c2C)OC1(C)C
Result: 6.15

Problem: Data request, read-out pIC50, for CC(C)n1c(=O)n(C)c2cnc3cc(F)c(-c4ccc(OCCCN5CCCCC5)nc4)cc3c21 + Nc1ccc(C#CCN(C(=O)Cc2ncc(C(F)(F)F)cc2C(F)(F)F)c2ccc(F)cc2)nn1
Result: < 5.00

Problem: Report pIC50 for CC[C@@]1(O)C(=O)OCc2c1cc1n(c2=O)Cc2cc3c(CN(C)C)c(O)ccc3nc2-1 + Cc1cccc(N(C)C(=O)C2C(O)CCN2c2nc(C)cc(C(F)(F)F)c2C#N)c1 please.
Result: < 7.00

Problem: Requested read-out: pIC50. Entry: CC(C)n1c(=O)n(C)c2cnc3cc(F)c(-c4ccc(OCCCN5CCCCC5)nc4)cc3c21 + COC1C(OC(N)=O)C(O)C(Oc2ccc3c(O)c(NC(=O)c4ccc(O)c(CC=C(C)C)c4)c(=O)oc3c2C)OC1(C)C
Result: < 5.00

Problem: Which measured pIC50 value corresponds to C=CC(=O)N1CCN(c2nc(=O)n(-c3c(C)ccnc3C(C)C)c3nc(-c4c(O)cccc4F)c(F)cc23)C(C)C1 (stereo not given) + Nc1ccc(C#CCN(C(=O)Cc2ncc(C(F)(F)F)cc2C(F)(F)F)c2ccc(F)cc2)nn1 ?
Result: < 5.00

Problem: Could you share which pIC50 value was measured for COc1cccc(OCCCN)c1-c1cc(Nc2cnc(C#N)cn2)n[nH]1 + Nc1ccc(C#CCN(C(=O)Cc2ncc(C(F)(F)F)cc2C(F)(F)F)c2ccc(F)cc2)nn1 ?
Result: 7.55
